# Assay Explanation: Storage stability: chromatographic purity (HPLC) of crystalline Form II on storage
# Assay type: physicochemical
# Test Context: initial, before storage; example text
Listing: Chromatographic Purity (Initial) of selected compounds
Readout Name: Chromatographic Purity (Initial) (%)

> print(dat)
                                   compound                      readout.name  recorded.value
1  CCN(CC)CCNC(=O)c1c(C)[nH]c(/C=C2\C(=O)Nc3ccc(F)cc32)c1C.O=C(O)C[C@H](O)C(=O)O [Example 4]  Chromatographic Purity (Initial)           99.70
2  CCN(CC)CCNC(=O)c1c(C)[nH]c(/C=C2\C(=O)Nc3ccc(F)cc32)c1C.O=C(O)C[C@H](O)C(=O)O [Example 2]  Chromatographic Purity (Initial)           99.70
3  CCN(CC)CCNC(=O)c1c(C)[nH]c(/C=C2\C(=O)Nc3ccc(F)cc32)c1C.O=C(O)C[C@H](O)C(=O)O [Example 7]  Chromatographic Purity (Initial)           99.50
4  CCN(CC)CCNC(=O)c1c(C)[nH]c(/C=C2\C(=O)Nc3ccc(F)cc32)c1C.O=C(O)C[C@H](O)C(=O)O [Example 1]  Chromatographic Purity (Initial)           99.10

---

# Assay Explanation: Storage stability: chromatographic purity (HPLC) of crystalline Form II on storage
# Assay type: physicochemical
# Test Context: 1 month storage, 25° C.±2° C., 60%±5% RH
Listing: Chromatographic Purity after 1M storage (at 25° C.±2° C./60%±5% RH) of selected compounds
Readout Name: Chromatographic Purity after 1M storage (at 25° C.±2° C./60%±5% RH) (%)

> print(dat)
                                   compound  endpoint.unit  recorded.value
1  CCN(CC)CCNC(=O)c1c(C)[nH]c(/C=C2\C(=O)Nc3ccc(F)cc32)c1C.O=C(O)C[C@H](O)C(=O)O [Example 7]              %            87.4
2  CCN(CC)CCNC(=O)c1c(C)[nH]c(/C=C2\C(=O)Nc3ccc(F)cc32)c1C.O=C(O)C[C@H](O)C(=O)O [Example 4]              %           99.70
3  CCN(CC)CCNC(=O)c1c(C)[nH]c(/C=C2\C(=O)Nc3ccc(F)cc32)c1C.O=C(O)C[C@H](O)C(=O)O [Example 1]              %            98.4
4  CCN(CC)CCNC(=O)c1c(C)[nH]c(/C=C2\C(=O)Nc3ccc(F)cc32)c1C.O=C(O)C[C@H](O)C(=O)O [Example 2]              %            98.7

---

# Assay Explanation: Storage stability: chromatographic purity (HPLC) of crystalline Form II on storage
# Type: physicochemical
# Test Context: 1 month storage, 40° C.±2° C., 75%±5% RH
Readout Name: Chromatographic Purity after 1M storage (at 40° C.±2° C./75%±5% RH) (%)

> print(dat)
                                   molecule  recorded.value
1  CCN(CC)CCNC(=O)c1c(C)[nH]c(/C=C2\C(=O)Nc3ccc(F)cc32)c1C.O=C(O)C[C@H](O)C(=O)O [Example 2]            97.3
2  CCN(CC)CCNC(=O)c1c(C)[nH]c(/C=C2\C(=O)Nc3ccc(F)cc32)c1C.O=C(O)C[C@H](O)C(=O)O [Example 4]            99.3
3  CCN(CC)CCNC(=O)c1c(C)[nH]c(/C=C2\C(=O)Nc3ccc(F)cc32)c1C.O=C(O)C[C@H](O)C(=O)O [Example 1]            97.0
4  CCN(CC)CCNC(=O)c1c(C)[nH]c(/C=C2\C(=O)Nc3ccc(F)cc32)c1C.O=C(O)C[C@H](O)C(=O)O [Example 7]            87.8
